# measuredTarget: kynurenine-3-hydroxylase (Rattus norvegicus, UniProt O88867)
# Sequence (O88867 whole entry): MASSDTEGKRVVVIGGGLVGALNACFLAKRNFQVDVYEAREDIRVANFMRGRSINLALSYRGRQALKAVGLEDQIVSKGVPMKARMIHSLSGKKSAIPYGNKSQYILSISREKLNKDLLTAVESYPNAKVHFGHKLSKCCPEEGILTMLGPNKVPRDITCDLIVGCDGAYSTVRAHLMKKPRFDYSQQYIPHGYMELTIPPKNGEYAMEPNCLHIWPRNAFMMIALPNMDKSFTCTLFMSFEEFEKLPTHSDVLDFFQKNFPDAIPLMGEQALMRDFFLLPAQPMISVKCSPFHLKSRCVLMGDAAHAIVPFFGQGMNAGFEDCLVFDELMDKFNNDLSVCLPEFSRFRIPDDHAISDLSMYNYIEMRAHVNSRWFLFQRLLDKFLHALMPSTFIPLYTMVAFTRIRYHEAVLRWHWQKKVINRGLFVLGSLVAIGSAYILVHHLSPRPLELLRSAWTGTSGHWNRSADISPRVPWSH
# experiment: Kynurenine-3-hydroxylase Assay in the Rat Brain
# Format: biochemical
# Set-up: from tissue
# studyConditions: rat brain homogenate, 50 μM L-kynurenine, 60 min incubation, pH 7.5; read-out: Enzyme Inhibition (Brain) IC50
pIC50: −log10 of the molar value.
Below, each of the compounds is paired with its reported pIC50 value.
recordedEndpoint: pIC50

- CCOC(=O)/C(O)=C\C(=O)c1ccc(Cl)c(Cl)c1: 5.70
- O=C(O)/C(O)=C\C(=O)c1ccc(Cl)c(Cl)c1: 6.52
- C/C(=C\C(=O)c1ccc(Cl)c(Cl)c1)C(=O)O: 5.47
- O=C(O)/C=C/C(=O)c1cccc(Cl)c1: 4.69
- O=C(O)/C(O)=C\C(=O)c1cccc(F)c1: 6.01
- O=C(O)/C=C/C(=O)c1ccc(Cl)c(Cl)c1: 6.05
- COC(=O)/C(O)=C\C(=O)c1ccc(Cl)c(Cl)c1: 6.02
- O=C(O)/C(O)=C\C(=O)c1ccc(F)c(F)c1: 6.36
- O=C(O)/C=C/C(=O)c1ccc(F)c(F)c1: 5.96
- O=C(O)/C(O)=C\C(=O)c1cccc(Cl)c1: 5.16
- O=C(O)/C=C/C(=O)c1cccc(F)c1: 4.66
- O=C(O)/C=C/C(=O)c1cccc([N+](=O)[O-])c1: 4.78
